Attribution: PubChem BioAssay (NCI)

Measured TGI values are reported for all entries that follow.
- Tested on: HT29 colon
- TEST_DESCRIPTION: NCI tumour cell line growth inhibition, 48 h

COMPOUND	TESTED_SYSTEM	TGI
C[C@H]1CC2=CC(=O)CC[C@]2(C)[C@H]2CC[C@@]3(C)[C@@H](CC[C@]3(C)O)[C@H]12	HT29 colon	> 100 µM

Incoming: Recall the reported TGI of CC(=O)O[C@H](C[C@H](C(C)C)N(C)C(=O)[C@@H](NC(=O)[C@H]1CCCCN1C)C(C)(C)C)c1nc(C(=O)N[C@@H](Cc2ccccc2)C[C@H](C)C(=O)O)cs1 on HT29 colon and write it down.
Outgoing: > 25 µM

Incoming: Fill in: TGI on HT29 colon, entry CNC(C)Cc1ccc(O)cc1 (centres undefined)
Outgoing: > 100 µM

Incoming: State the measured TGI (HT29 colon) of [N-]=[N+]=Nc1c(Br)c(=O)[nH]c(=O)n1COCCO
Outgoing: > 100 µM

====

TGI reference
- Tested on: RXF 393 renal
- TEST_DESCRIPTION: NCI tumour cell line growth inhibition, 48 h

COMPOUND	TGI
O=c1cccccc1NCCNc1cccccc1=O	> 100 µM

Incoming: Consider the compound COc1ccc(C2=NNC(=O)c3ccccc3N2c2nc(-c3cccs3)nc3ccc(Br)cc23)cc1 . State its measured TGI.
Outgoing: > 100 µM

Incoming: Give reported TGI value for COc1ccccc1N1C(=O)/C(=C\c2cccc(Oc3ccccc3)c2)S(=O)(=O)C1c1ccccc1 (stereo not drawn)
Outgoing: > 100 µM

====

- Test system: PC-3 prostate
- TEST_DESCRIPTION: NCI tumour cell line growth inhibition, 48 h
VALUE_KIND: TGI

Example entries and their recorded answers appear below.
COMPOUND	TESTED_SYSTEM	VALUE_KIND	RESULT
N#C/C(=C\c1cccnc1)c1nc2ccccc2o1	PC-3 prostate	TGI	> 100 µM
COc1ccc(C(C)NNC(=O)c2ccncc2)cc1F (stereo not drawn)	PC-3 prostate	TGI	> 100 µM
Nc1ccc(-c2nc3ccccc3s2)cc1	PC-3 prostate	TGI	29.2 µM
O=C1C(=Cc2ccccc2[N+](=O)[O-])N=C(c2ccccc2)N1n1c(-c2ccccc2)nc2ccccc2c1=O	PC-3 prostate	TGI	80.6 µM
COC(=O)[C@@H]1O[C@]12[C@@H](CO[Si](C)(C)C(C)(C)C)O[C@@H](n1cc(C)c(=O)[nH]c1=O)[C@@H]2O[Si](C)(C)C(C)(C)C	PC-3 prostate	TGI	55.7 µM

Incoming: Supply TGI value. Item: Cc1[nH]n(-c2ccccc2)c(=O)c1C(=O)c1ccccc1
Outgoing: > 25 µM

Incoming: State, in one line, measured TGI of C=CCn1c(=O)c2ccccc2[n+]2c(-c3cccc([N+](=O)[O-])c3)csc12
Outgoing: > 100 µM

Incoming: // fetch TGI given entry CCCNc1cccc(-n2ncc3c(N/N=C/c4ccncc4)ncnc32)c1
Outgoing: > 25 µM

====

- System: SK-OV-3 ovarian
- TEST_DESCRIPTION: NCI tumour cell line growth inhibition, 48 h
Documented TGI across a set of molecules

MOLECULE	RESULT
CC1OC=CC(=O)C1O (stereo not given)	> 100 µM

Incoming: Give recorded TGI. Cc1cccc(O)c(=O)c1
Outgoing: > 100 µM

Incoming: Give TGI for C[C@@H](c1ccccc1)N(CC#N)C1CCC[C@H]1O (stereo not given in full)
Outgoing: > 100 µM

Incoming: Indicate its recorded TGI; the molecule in question is C[C@@H]1OCC(O)C([C@H]2OC(c3ccccc3)=N[C@H]2CO)O1 (stereo not given in full)
Outgoing: > 100 µM

Incoming: Answer with reported TGI of COC(=O)c1nn(C(=N)c2ccc(Cl)cc2)c2c1CCCCC2
Outgoing: > 100 µM

Incoming: Report TGI for COC(=O)C1[C@H](C(=O)OC)C1(Br)CBr (stereo not given in full)
Outgoing: > 100 µM

Incoming: Input Cc1ccc(C)c2c1CCc1cc3ccccc3nc1-2 , output reported TGI.
Outgoing: > 100 µM

Incoming: Indicate its recorded TGI; the molecule in question is COC(=O)/C(=N/O)C(C(=O)OC)C(=O)C(=O)Nc1c(Cl)cc(C)cc1S(=O)(=O)O (stereo not given)
Outgoing: > 100 µM

Incoming: Respond only with TGI recorded for COc1cc2c(cc1O)CC[C@@H]1C2CC[C@@]2(C)C1CC[C@@H]2O (stereo not given in full)
Outgoing: > 100 µM

Incoming: Give the value of TGI reported for the following: O=C(/C=C/c1ccccc1)CCc1c(O)c2ccccc2oc1=O
Outgoing: > 100 µM

Incoming: Query TGI for C#CCOc1cccc(Nc2ncc3ncn(C4CCN(C(=O)CCl)C4)c3n2)c1 (stereo not given)
Outgoing: > 62.5 µM

Incoming: Let me know recorded TGI for CN/N=C(\C(=O)Nc1ccc([N+](=O)[O-])cc1[N+](=O)[O-])C1NC(=O)NC1=O (stereo not given) , thanks.
Outgoing: > 100 µM

Incoming: Tell me its TGI given O=c1cccccc1NCCNc1cccccc1=O as the entry.
Outgoing: > 100 µM

Incoming: Supply recorded TGI for FC(F)(F)c1cc(NC2=NCCN=C(Nc3cc(C(F)(F)F)cc(C(F)(F)F)c3)SS2)cc(C(F)(F)F)c1 here.
Outgoing: 54.3 µM

Incoming: Output measured TGI for this item: c1ccc(-c2cnc3nc4ccccc4nc3n2)cc1
Outgoing: 9.12 µM

Incoming: Return TGI for the following molecule: COc1ccc(C(C)NNC(=O)c2ccncc2)cc1F (stereo not given)
Outgoing: > 100 µM

Incoming: Give TGI for N#Cc1c(C#N)c(-c2ccccc2)n(/N=C\c2ccccc2)c1N
Outgoing: 70.2 µM

Incoming: Please give measured TGI of the following entry: CC[C@H](C)[C@H](NC(=O)c1nccn1C)C(=O)N(C)[C@H](C[C@@H](OC(C)=O)c1nc(C(=O)N[C@@H](Cc2ccccc2)C[C@H](C)C(=O)OC)cs1)C(C)C
Outgoing: > 33.3 µM

Incoming: Query TGI for N#Cc1ccc2c(c1)C(=O)c1c-2n(CCCN=[N+]=[N-])c(=O)c2cc([N+](=O)[O-])ccc12
Outgoing: > 50 µM

====

Here the recorded log10(TGI) is given for each entry.
- System: SF-539 CNS
- TEST_DESCRIPTION: NCI tumour cell line growth inhibition, 48 h
Values are log10 of TGI in µM.

Some entries whose results are on file:
COMPOUND	log10(TGI)
CC1(O)C(=O)OC2CC([C@]3(O)CCC4[C@@H]5C[C@H]6O[C@]67[C@@H](O)C=CC(=O)[C@]7(C)C5CC[C@@]43C)C1(C)C2 (stereo partly specified)	1.65
CC(=O)O[C@H]1C(=O)[C@@]2(C)C(C(OC(=O)c3ccccc3)[C@]3(O)CC(OC(=O)C(O)C(NC(=O)c4ccccc4)c4ccc(C)cc4)C(C)=C1C3(C)C)[C@]1(OC(C)=O)CO[C@@H]1C[C@@H]2O (stereo partly specified)	-1.19
CN(C)c1ccc(/C=C2\C[C@H]3[C@@H]4CCc5cc(O)ccc5[C@H]4CC[C@]3(C)C2=O)cc1	1.80
C=C1C[C@@H]2[C@H](CC[C@]3(C)C(=O)CC[C@@H]23)[C@@]2(C)C=CC(=O)C=C12	1.87

Now examine the next entry.
Incoming: In one line, give reported log10(TGI) of the entry COC(=O)C1=C(C)NC2(C)OC(C)(O)C(C(C)=O)C12C(C)=O (stereo unspecified) .
Outgoing: 1.76

====

- System: HT29 colon
- TEST_DESCRIPTION: NCI tumour cell line growth inhibition, 48 h
Reported values of GI50 for individual entries

Example cases with answers are listed next.
CHEMICAL_SMILES	RESULT
COc1cc(/C=C/c2cc(/C=C/c3ccc(O)c(OC)c3)[nH]c(=O)n2)ccc1O	1.3 µM
C/C=C/C(=O)[O-].N.N.N.N.N.[Co+3].[O-][Cl+3]([O-])([O-])[O-]	> 100 µM
C(#Cc1ccccc1C#Cc1ccccn1)c1ccccn1	30.3 µM
Cc1ccc(S(=O)(=O)c2ccsc2N)cc1	> 100 µM

Pending compound:
Incoming: Identify measured GI50 associated with Cc1ccc(/C=C2\CN(Cc3cn(CCNc4ccnc5cc(Cl)ccc45)nn3)C/C(=C\c3ccc(C)cc3)C2=O)cc1
Outgoing: 1.91 µM

====

- Tested on: OVCAR-5 ovarian
- TEST_DESCRIPTION: NCI tumour cell line growth inhibition, 48 h
Each item that follows carries a reported TGI.

MOLECULE	TGI
C[C@H]1CCC/C=C/[C@@H]2C[C@H](O)C[C@H]2[C@H](O)[C@@H](SC2OC(CO)C(O)C(O)C2O)CC(=O)O1 (stereo not given in full)	> 100 µM
COc1ccccc1N1C(=O)/C(=C\c2cccc(Oc3ccccc3)c2)S(=O)(=O)C1c1ccccc1 (stereo not given)	> 100 µM
C=C(C(=O)OC)[C@H]1CC/C(C)=C/CC/C(C)=C/CC[C@@]2(C)O[C@@H]2C1	48.2 µM
C=C1C(=O)O[C@H]2C3C(=C(C)CC[C@@H]12)C(=O)[C@@H]1OC31C (stereo not given in full)	23.3 µM
O=C(/C=C/c1ccccc1)CCc1c(O)c2ccccc2oc1=O	> 100 µM

Incoming: Find the measured TGI of Cc1cc(O)c2c(c1)C(=O)C(c1c(C)cc3c(c1O)C(=O)C1OC1C3=O)=CC2=O (stereo not given) with OVCAR-5 ovarian as test system.
Outgoing: 13 µM

Incoming: Supply TGI measured with OVCAR-5 ovarian for Cc1ccc2cnc(N)c(C#Cc3cncc(C(=O)Nc4ccc(CN5CCN(C)CC5)c(C(F)(F)F)c4)c3)c2c1 .
Outgoing: 1.24 µM

Incoming: Report the value of TGI obtained on OVCAR-5 ovarian for COc1cc(C(=O)C/C(CCC(=O)Nc2ccc(Cl)cc2Cl)=N/Nc2nnc(C)n2N)ccc1O .
Outgoing: > 100 µM

Incoming: Look up and report measured TGI (OVCAR-5 ovarian) for the following molecule: CC(C)(F)C[C@H](N[C@@H](c1ccc(-c2ccc(S(C)(=O)=O)cc2)cc1)C(F)(F)F)C(=O)NC1(C#N)CC1
Outgoing: > 100 µM

Incoming: Give TGI only, for N=C1C(c2nc(-c3ccc(Br)cc3)cs2)=C(O)CN1CC1CCCO1 (stereo not given) , using OVCAR-5 ovarian data.
Outgoing: > 100 µM

Incoming: State TGI on OVCAR-5 ovarian. Entry: CCCC(=O)OC1CC(n2cc(F)c(=O)[nH]c2=O)OC1CO (stereo not given)
Outgoing: > 10 µM

Incoming: Report measured TGI on OVCAR-5 ovarian; entry: COC(=O)/C(=N/O)C(C(=O)OC)C(=O)C(=O)Nc1c(Cl)cc(C)cc1S(=O)(=O)O (stereo not given)
Outgoing: > 100 µM

Incoming: Report TGI under test system OVCAR-5 ovarian for CC(=O)O[C@H]1C(=O)[C@@]2(C)C(C(OC(=O)c3ccccc3)[C@]3(O)CC(OC(=O)C(O)C(NC(=O)c4ccccc4)c4ccc(C)cc4)C(C)=C1C3(C)C)[C@]1(OC(C)=O)CO[C@@H]1C[C@@H]2O (stereo not given in full) .
Outgoing: 0.237 µM
